tested on: Region II of the P. knowlesi Duffy antigen binding protein (α); settings: read-out: concentration for 50% inhibition of erythrocyte binding, human erythrocytes
Ends that are not written are not given here.
PARAMETER_MEASURED: pIC50
Give bare numbers, as −log10 of the molar value.

Reported pIC50 ( AELSPSTENSSQLDFEDVWNSSYGVNDSFPDGDYD [HPEP35] ) = 5.31

---

Kindly state pIC50 for each of the entries shown.
biological target: Region II of P. falciparum EBA-175 (Plasmodium falciparum, UniProt P19214); construct: expressed in transfected cells; host or cells: Cos7 cells (ATCC CRL 1651); assay: cell-based
pIC50: −log10 of the molar value. Ends that are not written are not given here.

>>> obs_value("AELSPSTENSSQLDFEDVWNSSYGVNDSFPDGDYD [HPEP35]")
"< 4.00"

Record AELSPSTQNSSQLNSDLWNFSYDGNDSFPDVDYD [RHPEP34] , field pIC50: < 4.00
